// cross-study collection: pIC50 for Fibroblast growth factor receptor 1 (Homo sapiens)
pIC50: −log10 of the molar value.

Provide the reported pIC50 (system: Fibroblast growth factor receptor 1 (Homo sapiens)) for COc1cc(OC)c(F)c(-c2cc3[nH]nc(-c4ccc(N5CCN(C)CC5)nc4)c3cn2)c1F > 7.00

Provide the reported pIC50 (system: Fibroblast growth factor receptor 1 (Homo sapiens)) for COC[C@H](C)Nc1cc(NC(=O)N2CCCc3cc(CN(C)C(=O)[C@H]4CCCO4)c(C=O)nc32)ncc1C#N < 5.00

Provide the reported pIC50 (system: Fibroblast growth factor receptor 1 (Homo sapiens)) for COc1cc(CCc2cnc3[nH]c(-c4ccc(N5CCN(C)CC5)cc4)c(C)c3n2)cc(OC)c1 > 7.00

Provide the reported pIC50 (system: Fibroblast growth factor receptor 1 (Homo sapiens)) for Cn1cc(-c2ccc3c(c2)ncn3-c2cc(-c3ccc(F)cc3F)cc(NS(C)(=O)=O)n2)cn1 8.37

Provide the reported pIC50 (system: Fibroblast growth factor receptor 1 (Homo sapiens)) for C[C@@H](Oc1ccc2[nH]nc(/C=C(\F)c3ccc(CN4CCN(C)CC4)nc3)c2c1)c1c(Cl)cncc1Cl ≥ 8.00

Provide the reported pIC50 (system: Fibroblast growth factor receptor 1 (Homo sapiens)) for CCN1CCC(Oc2ccc3c(c2)/C(=C(\c2cc(F)cc(F)c2)c2nc4ccccc4[nH]2)C(=O)N3)CC1 6.30 to 7.30

Provide the reported pIC50 (system: Fibroblast growth factor receptor 1 (Homo sapiens)) for CCN1C(=O)N(c2c(F)c(OC)cc(OC)c2Cl)Cc2cnc3c(c21)CC(=O)N3 > 7.00

----------
pIC50: −log10 of the molar value.
// cross-study collection: pIC50 for Fibroblast growth factor receptor 1 (Homo sapiens, UniProt P11362)

Worked set:
{"compound": "COc1cc2nccc(Oc3ccc4[nH]cc(C#N)c4c3)c2cc1C(N)=O", "measurement_type": "pIC50", "data_value": "6.00 to 6.70"}
{"compound": "COc1cc(OC)c(Cl)c(-c2ccc3c(-c4ccc5c(c4)CN(C4CC4)C5=O)n[nH]c3n2)c1F", "measurement_type": "pIC50", "data_value": "> 7.00"}
{"compound": "COc1cc(OC)c(Cl)c(-c2cc3[nH]nc(-c4ccc5c(c4)COC5=O)c3cn2)c1Cl", "measurement_type": "pIC50", "data_value": "> 7.00"}
{"compound": "C=CC(=O)N1CCC(Nc2ncc3cc(-c4c(Cl)c(OC)cc(OC)c4Cl)ccc3n2)CC1", "measurement_type": "pIC50", "data_value": "> 8.52"}
{"compound": "COc1cc(Nc2ncnc(-n3c(NCCc4ccccn4)nc4ccccc43)n2)cc(OC)c1OC", "measurement_type": "pIC50", "data_value": "5.32 to 6.10"}

Provide the reported pIC50 (system: Fibroblast growth factor receptor 1 (Homo sapiens, UniProt P11362)) for CNC(=O)c1cncc(-c2cnn3cc(-c4cnn(C)c4)c(OC4CCOC4)nc23)c1 (racemic) 6.70 to 7.52

Provide the reported pIC50 (system: Fibroblast growth factor receptor 1 (Homo sapiens, UniProt P11362)) for COc1cc2nccc(Oc3ccc4c(c3)CCCN4C(=S)NC3CC3)c2cc1C(N)=O 6.00 to 6.70

Provide the reported pIC50 (system: Fibroblast growth factor receptor 1 (Homo sapiens, UniProt P11362)) for CNC(=O)c1cc(-c2cnn3cc(-c4cnn(C5CN(C)C5)c4)c(O[C@H]4CCOC4)nc23)c(F)c(C(F)F)c1 > 8.00

----------
// cross-study collection: IC50 for Fibroblast growth factor receptor 1 (Homo sapiens)

Worked set:
{"smiles_string": "COc1cc(OC)c(F)c(-c2cc3[nH]nc(-c4ccc5c(c4)CN(C4CC4)C5=O)c3cn2)c1F", "data_value": "< 100 nM"}
{"smiles_string": "COc1cc(CCc2cnc3[nH]c(-c4ccc(CO)cc4)cc3n2)cc(OC)c1", "data_value": "< 100 nM"}
{"smiles_string": "CNC(=O)c1cc(F)c(F)c(-c2cnn3cc(-c4cnn(C5CN(C)C5)c4)c(O[C@H]4CCOC4)nc23)c1", "data_value": "< 10 nM"}
{"smiles_string": "Cn1cc(-c2ccc3c(c2)ncn3-c2cc(-c3ccccc3F)nc(NS(=O)(=O)C3CC3)n2)cn1", "data_value": "9.2 nM"}
{"smiles_string": "COC[C@@H](C)Oc1cc(NC(=O)N2CCCc3cc(CN4CCN(C)CC4=O)c(C=O)nc32)ncc1C#N", "data_value": "> 10000 nM"}

Tell me its IC50 given COc1ccc(-c2cccc3c2/C(=C/c2[nH]c(C)c(C(=O)NCCN4CCCC4)c2C)C(=O)N3)cc1 as the entry. 80 nM

Tell me its IC50 given COc1cc2nccc(Oc3ccc(NC(=S)NCCN4CCOCC4)c(Cl)c3)c2cc1C(N)=O as the entry. 200 to 1000 nM

Tell me its IC50 given COc1cc(Nc2ncnc(N(C)c3ccc(Cl)cc3)n2)cc(OC)c1OC as the entry. 995 to 5970 nM

----------
// cross-study collection: IC50 for UniProt:P11362

Worked set:
{"molecule": "C=CC(=O)NCc1cc2c(cn1)CN(c1c(F)c(OC)cc(OC)c1F)C(=O)N2CC", "IC50": "> 200 nM"}
{"molecule": "COCCNC(=O)c1cc2c(Oc3ccc(NC(=S)NC4CC4)c(Cl)c3)ccnc2cc1OC", "IC50": "200 to 1000 nM"}

Tell me its IC50 given CC(Oc1ccc2[nH]nc(/C=C/c3cnc(CN4CCOCC4)cn3)c2c1)c1c(Cl)cncc1Cl (stereo not shown) as the entry. 10 to 50 nM

Tell me its IC50 given COc1cc(OC)c(Cl)c(-c2cc3[nH]nc(-c4cnn(CC(=O)N5CC(O)C5)c4)c3cn2)c1Cl as the entry. < 100 nM

Tell me its IC50 given CCC1NC(=O)c2cc3c(Oc4ccc(NC(=S)NC5CC5)c(Cl)c4)ccnc3cc2O1 (stereo not shown) as the entry. 200 to 1000 nM

Tell me its IC50 given CNC(=O)c1cc(-c2cnn3cc(-c4cnn(C)c4)c(N[C@H]4CCOC4)nc23)c(F)c(C(F)F)c1 as the entry. 10 to 30 nM

Tell me its IC50 given CN1CCOC(CNc2cc(NC(=O)N3CCCc4cc(C(F)F)c(C=O)nc43)ncc2C#N)C1 (racemic) as the entry. > 10000 nM

Tell me its IC50 given COc1cc2nccc(Oc3ccc(NC(=S)NCC(F)F)c(Cl)c3)c2cc1C(N)=O as the entry. 50 to 200 nM

Tell me its IC50 given COc1cc(OC)c(F)c(-c2ncc3c(-c4ccc5nccn5c4)n[nH]c3n2)c1F as the entry. < 100 nM

Tell me its IC50 given COCCOc1ccc(Nc2ncc(F)c(NCCNS(=O)(=O)c3c(F)c(F)c(F)c(F)c3F)n2)cc1 as the entry. > 2000 nM

----------
// cross-study collection: IC50 for Fibroblast growth factor receptor 1 (Homo sapiens)

Worked set:
{"molecule": "COc1cc(OC)c(F)c(-c2ncc3c(-c4ccc5c(c4)CN(C(C)CO)C5=O)n[nH]c3n2)c1F (stereo not shown)", "target_or_system": "Fibroblast growth factor receptor 1 (Homo sapiens)", "IC50": "< 100 nM"}
{"molecule": "Cc1ccc(/C(=C2/C(=O)Nc3ccc(NC4CCN(C)CC4)cc32)c2ncc[nH]2)cc1", "target_or_system": "Fibroblast growth factor receptor 1 (Homo sapiens)", "IC50": "< 50 nM"}
{"molecule": "CCOc1c(N)ncc2c1N(C)C(=O)N(c1c(F)c(OC)cc(OC)c1F)C2", "target_or_system": "Fibroblast growth factor receptor 1 (Homo sapiens)", "IC50": "< 100 nM"}
{"molecule": "COc1cc(CCc2cnc3[nH]c(-c4ccc(C5CCN(C)CC5)cc4)cc3n2)cc(OC)c1", "target_or_system": "Fibroblast growth factor receptor 1 (Homo sapiens)", "IC50": "< 100 nM"}
{"molecule": "CCN1CCC(Nc2ccc3c(c2)/C(=C(\\c2ccc(C)c(F)c2)c2nc(C)c[nH]2)C(=O)N3)CC1", "target_or_system": "Fibroblast growth factor receptor 1 (Homo sapiens)", "IC50": "< 50 nM"}

Now for a further molecule.
Provide the reported IC50 (system: Fibroblast growth factor receptor 1 (Homo sapiens)) for [2H]C([2H])([2H])NC(=O)c1coc2cc(Oc3ccnc4cc(OC)c(C(N)=O)cc34)c(F)cc12 50 to 200 nM

----------
// cross-study collection: pIC50 for Fibroblast growth factor receptor 1 (Homo sapiens)
pIC50: −log10 of the molar value.

Worked set:
{"compound": "C=CC(=O)NCc1cc2c(cn1)CN(c1c(F)c(OC)cc(OC)c1F)C(=O)N2c1ccn(C)n1", "target_or_system": "Fibroblast growth factor receptor 1 (Homo sapiens)", "data_value": "< 6.70"}
{"compound": "COc1cc(CCc2cnc3[nH]c(-c4ccc(N5CCN(CCO)CC5)cc4)cc3n2)cc(OC)c1", "target_or_system": "Fibroblast growth factor receptor 1 (Homo sapiens)", "data_value": "> 7.00"}
{"compound": "CC(Oc1ccc2[nH]nc(/C=C/c3ccc(CN4CCOCC4)nc3)c2c1)c1c(Cl)cncc1Cl (stereo not shown)", "target_or_system": "Fibroblast growth factor receptor 1 (Homo sapiens)", "data_value": "≥ 8.00"}
{"compound": "O=S(=O)(Nc1cc(-c2ccc(F)cc2F)cc(-n2cnc3cc(-n4ccnc4)ccc32)n1)C1CC1", "target_or_system": "Fibroblast growth factor receptor 1 (Homo sapiens)", "data_value": 7.66}
{"compound": "Cc1ccc(C(=O)Nc2n[nH]c3c2CCn2cc(C(=O)N4CCC(N5CCCCC5)CC4)cc2-3)c(C)c1", "target_or_system": "Fibroblast growth factor receptor 1 (Homo sapiens)", "data_value": 5.24}
{"compound": "COc1cc2nccc(Oc3ccc(NC(=S)NC4CC4)cc3C(F)(F)F)c2cc1C(N)=O", "target_or_system": "Fibroblast growth factor receptor 1 (Homo sapiens)", "data_value": "6.00 to 6.70"}

Now for a further compound.
Provide the reported pIC50 (system: Fibroblast growth factor receptor 1 (Homo sapiens)) for COc1cc(OC)c(Cl)c(-c2ncc3c(-c4ccc5c(c4)CCC(C(=O)N(C)C)O5)n[nH]c3n2)c1Cl (stereo not shown) > 7.00
